- measurement.protocol: growth suppression of PTEN-deleted HCT116, pilot screen, cell-based, HCT116 clonal line, CellTiter-Glo (AID 824);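 further: 0% = 20 µM Hyamine control and 100% = vehicle cell control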
- measurement.conditions: 60 h, at 10 µM, stronger effect = lower value
Records with an inconclusive call do not appear. The source made the active and inactive calls.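 How the source made its calls: active means viability at or below 27.92% in each of two runs, the all-compound median minus 4 SD; inconclusive means no clear call, values can overlap the other calls; inactive means the rest.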
The following molecules are shown together with reported viability values.
measure: viability

# molecule, result
records = [
    ("CCCC(=O)C1C(=O)CC(C)(C)C(c2cc(C)no2)C1=O (stereo unspecified)", "98.7% (inactive)"),
    ("Cc1cccc(NC(=O)C2CCCN(S(=O)(=O)c3cccc4cccnc34)C2)c1 (stereo unspecified)", "74.6% (inactive)"),
    ("CC1Cc2ccccc2N1C1=NS(=O)(=O)c2ccccc21 (stereo unspecified)", "96.5% (inactive)"),
    ("CC(=O)Oc1c(Cl)c(N2CCOCC2)c(OC(C)=O)c2ccccc12", "79% (inactive)"),
    ("CN(C)S(=O)(=O)N1CCC(Cc2ccccc2)CC1", "85% (inactive)"),
    ("CC(=O)c1c(C)[nH]c(C(=O)N2c3ccccc3CC2C)c1C (stereo unspecified)", "92.6% (inactive)"),
    ("CC(C)CNS(=O)(=O)c1ccc(S(=O)(=O)N2CCN(CCC#N)CC2)cc1", "103% (inactive)"),
    ("CCCC(=O)Nc1nc(-c2ccc3c(c2)OCCO3)cs1", "83.3% (inactive)"),
    ("COc1ccc(-c2nc(C(N)=O)c3[nH]c(=O)n(-c4cccc(C)c4)c3n2)c(OC)c1", "74.3% (inactive)"),
    ("CC1CN(C(=O)Nc2ccc3snnc3c2)c2ccccc21 (stereo unspecified)", "75% (inactive)"),
    ("Cc1c(C#N)c2ncn(Cc3ccccc3)c(=O)c2n1-c1ccccc1", "83.8% (inactive)"),
    ("O=C(CCS(=O)(=O)c1cccs1)N1CCCC1", "96.2% (inactive)"),
    ("O=C(NCc1ccccn1)Nc1cccc(Cl)c1", "94.5% (inactive)"),
    ("O=C(CN(C1CCCCC1)S(=O)(=O)c1ccc(Cl)cc1)NCc1ccncc1", "79.4% (inactive)"),
    ("O=C1c2ccccc2C(O)N1Cc1ccc2c(c1)OCO2 (stereo unspecified)", "106% (inactive)"),
    ("Oc1cnn(-c2ccccc2)c1", "94.3% (inactive)"),
]
